Listed here are molecules together with their documented residual activity.
# Target or test system: FGFR1 (human) (UniProt P11362)
# Sequence (P11362 whole entry, looked up): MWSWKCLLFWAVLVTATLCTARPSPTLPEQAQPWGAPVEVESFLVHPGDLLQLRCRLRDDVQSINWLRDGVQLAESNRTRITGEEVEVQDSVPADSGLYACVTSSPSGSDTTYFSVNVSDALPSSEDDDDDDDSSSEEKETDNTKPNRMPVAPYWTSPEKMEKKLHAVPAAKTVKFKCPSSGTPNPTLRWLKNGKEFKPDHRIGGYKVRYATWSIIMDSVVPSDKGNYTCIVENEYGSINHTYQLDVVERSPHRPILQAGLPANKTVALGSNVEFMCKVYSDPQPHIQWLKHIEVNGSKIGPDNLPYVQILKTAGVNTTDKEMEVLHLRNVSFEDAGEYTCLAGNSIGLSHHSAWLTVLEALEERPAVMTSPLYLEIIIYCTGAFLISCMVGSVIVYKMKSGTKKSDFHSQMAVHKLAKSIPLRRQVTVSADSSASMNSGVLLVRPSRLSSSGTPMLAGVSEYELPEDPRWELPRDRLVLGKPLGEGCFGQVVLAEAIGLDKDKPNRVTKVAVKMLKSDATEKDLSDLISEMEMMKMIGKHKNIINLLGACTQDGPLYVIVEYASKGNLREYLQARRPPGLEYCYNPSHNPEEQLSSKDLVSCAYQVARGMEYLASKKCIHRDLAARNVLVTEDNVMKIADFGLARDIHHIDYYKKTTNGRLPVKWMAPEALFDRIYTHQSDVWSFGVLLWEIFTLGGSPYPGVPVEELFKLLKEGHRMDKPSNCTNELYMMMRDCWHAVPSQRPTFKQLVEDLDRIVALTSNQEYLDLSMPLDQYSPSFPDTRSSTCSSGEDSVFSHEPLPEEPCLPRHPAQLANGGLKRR
# Experimental protocol: radiometric filter-binding kinase assay, Kinase HotSpot
# Condition: compound 0.5 µM; ATP 10 µM
Quantity name: residual activity

[
  {
    "Molecule": "CO[C@H]1CC2CC[C@@H](C)[C@@](O)(O2)C(=O)C(=O)N2CCCC[C@H]2C(=O)OC([C@H](C)C[C@@H]2CC[C@@H](O)[C@H](OC)C2)CC(=O)[C@H](C)/C=C(\\C)[C@@H](O)[C@@H](OC)C(=O)[C@H](C)C[C@H](C)/C=C/C=C/C=C/1C (stereo not given in full)",
    "Quantity name": "residual activity",
    "Reported result": "89.4%"
  },
  {
    "Molecule": "CCN(CC)CCNC(=O)c1c(C)[nH]c(/C=C2\\C(=O)Nc3ccc(Cl)cc32)c1C",
    "Quantity name": "residual activity",
    "Reported result": "20.3%"
  },
  {
    "Molecule": "Cc1[nH]c(/C=C2\\C(=O)Nc3ccc(S(=O)(=O)N(C)c4cccc(Cl)c4)cc32)c(C)c1C(=O)N1CCN(C)CC1",
    "Quantity name": "residual activity",
    "Reported result": "80%"
  },
  {
    "Molecule": "CCOC(=O)c1c(C)[nH]c(/C=C2\\C(=O)Nc3ccccc32)c1C",
    "Quantity name": "residual activity",
    "Reported result": "78.6%"
  },
  {
    "Molecule": "Nc1ncnc2c1c(-c1ccc(Oc3ccccc3)cc1)cn2C1CCCC1",
    "Quantity name": "residual activity",
    "Reported result": "77.4%"
  }
]

---

# Target or test system: CSNK2A1 (human) (UniProt P68400)
# Sequence (P68400 whole entry, looked up): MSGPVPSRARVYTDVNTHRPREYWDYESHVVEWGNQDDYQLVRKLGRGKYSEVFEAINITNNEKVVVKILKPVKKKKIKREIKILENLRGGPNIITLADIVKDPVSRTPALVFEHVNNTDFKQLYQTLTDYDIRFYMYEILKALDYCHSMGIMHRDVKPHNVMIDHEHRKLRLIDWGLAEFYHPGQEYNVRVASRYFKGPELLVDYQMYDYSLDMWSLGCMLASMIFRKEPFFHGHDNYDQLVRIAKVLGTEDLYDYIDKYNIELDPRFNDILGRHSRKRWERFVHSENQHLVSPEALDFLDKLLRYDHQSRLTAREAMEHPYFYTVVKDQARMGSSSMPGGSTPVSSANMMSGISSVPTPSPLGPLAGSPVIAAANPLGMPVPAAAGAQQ
# Experimental protocol: radiometric filter-binding kinase assay, Kinase HotSpot
# Condition: compound 0.5 µM; ATP 10 µM
Here the recorded residual activity is given for each entry.

[
  {
    "Smiles repr": "CCN(CC)C(=O)c1ccc(Nc2nc(OCC3CCCCC3)c3nc[nH]c3n2)cc1",
    "Target or test system": "CSNK2A1 (human) (UniProt P68400)",
    "Result unit": "%",
    "residual activity": 87.4
  },
  {
    "Smiles repr": "CCC(=O)Nc1ccc2ncnc(Nc3cccc(Br)c3)c2c1",
    "Target or test system": "CSNK2A1 (human) (UniProt P68400)",
    "Result unit": "%",
    "residual activity": 99
  },
  {
    "Smiles repr": "Cc1ccc(Nc2nccc(N(C)c3ccc4c(C)n(C)nc4c3)n2)cc1S(N)(=O)=O",
    "Target or test system": "CSNK2A1 (human) (UniProt P68400)",
    "Result unit": "%",
    "residual activity": 114
  },
  {
    "Smiles repr": "CC#CC(=O)Nc1cc2c(Nc3ccc(F)c(Cl)c3)ncnc2cn1",
    "Target or test system": "CSNK2A1 (human) (UniProt P68400)",
    "Result unit": "%",
    "residual activity": 90.9
  },
  {
    "Smiles repr": "CC(=O)c1ccc(N2CCOCC2)cc1O",
    "Target or test system": "CSNK2A1 (human) (UniProt P68400)",
    "Result unit": "%",
    "residual activity": 101
  },
  {
    "Smiles repr": "O=C(Nc1cccc(Nc2nccc(Nc3cccc(C(F)(F)F)c3)n2)c1)C1CC1",
    "Target or test system": "CSNK2A1 (human) (UniProt P68400)",
    "Result unit": "%",
    "residual activity": 94.1
  }
]
